Give measured inhibition at 1 µM for each item. Keep answers brief.
# System: human PRP (platelet rich plasma)
# assay_info: Pharmacological test 1: inhibition of ADP-induced platelet aggregation in human PRP
# Type: cell-based
# details: Platelet, inhibition rate at 10^-6 M, ADP 5 μM inducer
Where a name gives a salt, the structure may show the parent alone.
Answers are plain numbers, in %.

The cases that follow already have their inhibition at 1 µM on record.
| compound | result_units | inhibition at 1 µM |
| --- | --- | --- |
| O=C(O)COc1ccc(C(=O)CNC(=O)CCC2CCNCC2)cc1OCC(=O)O | % | 85 |
| CN(CC(=O)c1ccc(OCC(=O)O)c(OCC(=O)O)c1)C(=O)CCC1CCNCC1 [Example 9, trifluoroacetate] | % | 79 |

Dear colleague, could you send me inhibition at 1 µM for each of the items below? Thanks.
1. NC[C@H]1CC[C@H](C(=O)NCCc2ccc(OCC(=O)O)c(OCC(=O)O)c2)CC1
2. NC[C@H]1CC[C@H](C(=O)NCC(=O)c2ccc(OCC(=O)O)c(OCC(=O)O)c2)CC1 [Example 1, trifluoroacetate]
3. NCC1CCC(c2ncc(-c3ccc(OCC(=O)O)c(OCC(=O)O)c3)o2)CC1 (centres unmarked)

**Result**
1: 48; 2: 68; 3: 85

###

# Tested on: human PRP (platelet rich plasma)
# assay_info: Pharmacological test 1: inhibition of ADP-induced platelet aggregation in human PRP
# Format: cell-based
# details: platelet aggregation, ADP 5 μM inducer
observation_type: IC50
Write your answer as a measured quantity: the number, then the unit.

**Query** Return reported IC50; argument: `O=C(O)COc1ccc(C(=O)CNC(=O)c2cc3c(s2)CCNC3)cc1OCC(=O)O`
**Result** 230 nM

###

# tested_on: human platelet GPIIb/IIIa (Homo sapiens, UniProt P05106+P08514)
# Construct: platelets collected from healthy adults
# Sequence (P08514 32-887 limits assumed): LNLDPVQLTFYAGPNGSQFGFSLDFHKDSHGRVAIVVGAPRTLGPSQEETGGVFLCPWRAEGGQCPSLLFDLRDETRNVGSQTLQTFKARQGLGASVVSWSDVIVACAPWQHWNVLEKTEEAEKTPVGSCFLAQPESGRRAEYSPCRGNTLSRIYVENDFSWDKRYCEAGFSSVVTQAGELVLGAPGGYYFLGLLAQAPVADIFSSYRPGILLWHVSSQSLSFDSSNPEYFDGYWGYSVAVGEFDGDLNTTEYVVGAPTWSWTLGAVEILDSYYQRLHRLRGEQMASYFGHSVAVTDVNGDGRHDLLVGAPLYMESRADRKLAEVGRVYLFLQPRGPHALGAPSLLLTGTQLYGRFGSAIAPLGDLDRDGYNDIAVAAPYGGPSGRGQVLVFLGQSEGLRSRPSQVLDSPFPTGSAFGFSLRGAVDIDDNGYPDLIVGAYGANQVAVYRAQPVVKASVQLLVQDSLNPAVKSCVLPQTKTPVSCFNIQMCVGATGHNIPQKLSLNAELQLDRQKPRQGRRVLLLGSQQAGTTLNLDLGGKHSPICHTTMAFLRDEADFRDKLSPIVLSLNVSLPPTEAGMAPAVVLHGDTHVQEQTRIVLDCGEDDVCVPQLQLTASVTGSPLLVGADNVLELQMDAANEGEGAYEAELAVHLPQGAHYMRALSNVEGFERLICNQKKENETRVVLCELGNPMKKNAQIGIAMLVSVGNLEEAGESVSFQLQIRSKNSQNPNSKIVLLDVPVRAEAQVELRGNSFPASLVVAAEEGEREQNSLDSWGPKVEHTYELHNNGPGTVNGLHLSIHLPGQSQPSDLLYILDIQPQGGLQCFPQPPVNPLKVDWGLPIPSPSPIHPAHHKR
# Sequence (P08514 891-1039 limits assumed): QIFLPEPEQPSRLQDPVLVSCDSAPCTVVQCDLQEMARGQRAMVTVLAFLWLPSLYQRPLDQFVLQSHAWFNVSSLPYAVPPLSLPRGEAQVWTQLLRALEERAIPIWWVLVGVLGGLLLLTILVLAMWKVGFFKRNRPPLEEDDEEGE
# Sequence (P05106 27-788): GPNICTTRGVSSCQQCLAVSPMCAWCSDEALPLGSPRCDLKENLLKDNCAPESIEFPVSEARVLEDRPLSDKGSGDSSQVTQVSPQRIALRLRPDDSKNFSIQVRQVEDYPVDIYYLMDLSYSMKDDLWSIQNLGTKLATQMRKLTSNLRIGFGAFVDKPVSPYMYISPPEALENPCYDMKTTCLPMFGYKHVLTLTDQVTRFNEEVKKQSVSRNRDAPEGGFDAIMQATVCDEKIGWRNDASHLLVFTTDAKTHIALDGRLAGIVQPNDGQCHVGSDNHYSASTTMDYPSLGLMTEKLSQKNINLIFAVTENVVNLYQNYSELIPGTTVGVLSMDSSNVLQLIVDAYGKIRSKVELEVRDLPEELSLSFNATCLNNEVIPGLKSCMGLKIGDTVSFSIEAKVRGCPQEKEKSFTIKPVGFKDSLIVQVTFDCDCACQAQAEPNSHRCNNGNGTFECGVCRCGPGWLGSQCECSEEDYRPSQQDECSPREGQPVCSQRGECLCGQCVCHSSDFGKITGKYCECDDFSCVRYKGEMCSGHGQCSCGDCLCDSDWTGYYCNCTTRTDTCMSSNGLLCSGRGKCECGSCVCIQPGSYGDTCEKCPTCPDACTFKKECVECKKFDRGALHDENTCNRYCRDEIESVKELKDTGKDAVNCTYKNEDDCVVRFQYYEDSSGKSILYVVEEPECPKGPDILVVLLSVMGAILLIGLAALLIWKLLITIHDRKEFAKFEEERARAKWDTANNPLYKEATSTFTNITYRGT
# assay_info: Pharmacological test 2: inhibition of fibrinogen bonding to platelet GPIIb/IIIa (solid phase assay, biotinylated fibrinogen)
# details: fibrinogen bonding to GPIIb/IIIa
Where a name gives a salt, the structure may show the parent alone.
observation_type: log10 of IC50 (log10 of the value in µM)
Remember, log10 of IC50, in µM.

| compound | log10 of IC50 |
| --- | --- |
| O=C(O)COc1ccc(C(O)CNC(=O)c2cc3c(s2)CCNC3)nc1 (stereo not drawn) [Example 21, trifluoroacetate] | 1.00 |
| Cc1c(C(=O)NCC(=O)c2ccc(OCC(=O)O)c(OCC(=O)O)c2)sc2c1CNCC2 | 0.98 |
| O=C(O)CCc1ccc(C(=O)CNC(=O)c2cc3c(s2)CCNC3)cc1 [Example 20, trifluoroacetate] | 1.53 |
| O=C(O)COc1ccc(C(=O)CNC(=O)c2cc3c(s2)CCNC3)cc1OCC(=O)O [Example 18, trifluoroacetate] | 0.23 |

Moving on to the next compound.
**Query** Give log10 of IC50 (human platelet GPIIb/IIIa (Homo sapiens, UniProt P05106+P08514)) of the following compound: CN(CC(=O)c1ccc(OCC(=O)O)c(OCC(=O)O)c1)C(=O)c1cc2c(s1)CCNC2 [Example 19, trifluoroacetate]
**Result** 0.56

###

# System: human PRP (platelet rich plasma)
# assay_info: Pharmacological test 1: inhibition of ADP-induced platelet aggregation in human PRP
# Type: cell-based
# details: Homo sapiens, Platelet, platelet aggregation, ADP 5 μM inducer
Counter-ions that a name gives are not always drawn.
I'd be grateful if you could share measured pIC50 for these entries.
Numbers only, as −log10 of the molar value.

Please review the following examples before continuing.
| compound | measured_result |
| --- | --- |
| O=C(O)COc1ccc(C(O)CNC(=O)c2cc3c(s2)CCNC3)nc1 (centres unmarked) [Example 21, trifluoroacetate] | 6.30 |
| O=C(O)COc1ccc(C(=O)CNC(=O)CCC2CCNCC2)cc1OCC(=O)O [Example 10] | 6.46 |
| O=C(O)COc1ccc(-c2cnc(CCC3CCNCC3)o2)cc1OCC(=O)O [Example 43] | 5.55 |
| O=C(O)COc1ccc(C(=O)CNC(=O)CCCC2CCNCC2)cc1OCC(=O)O [Example 36, trifluoroacetate] | 5.05 |
| CCCCOC(=O)COc1ccc(C(=O)CNC(=O)c2cc3c(s2)CCNC3)cc1OCC(=O)OCCCC [Example 56, trifluoroacetate] | 5.96 |
| Cc1c(C(=O)NCC(=O)c2ccc(OCC(=O)O)c(OCC(=O)O)c2)sc2c1CNCC2 [Example 27] | 5.60 |
| O=C(O)COc1ccc(-c2nc(C(=O)c3cc4c(s3)CCNC4)cs2)cc1 [Example 47] | 5.19 |

Would you kindly look at the next entry?
**Query** # input compound: COc1cc(C(=O)CNC(=O)c2cc3c(s2)CCNC3)ccc1OCC(=O)O [Example 26] ; wanted: its pIC50
**Result** 6.00
